Entry source: ChEMBL document CHEMBL1157452

Target: Aminopeptidase N (Sus scrofa)
Sequence (P15145 whole entry): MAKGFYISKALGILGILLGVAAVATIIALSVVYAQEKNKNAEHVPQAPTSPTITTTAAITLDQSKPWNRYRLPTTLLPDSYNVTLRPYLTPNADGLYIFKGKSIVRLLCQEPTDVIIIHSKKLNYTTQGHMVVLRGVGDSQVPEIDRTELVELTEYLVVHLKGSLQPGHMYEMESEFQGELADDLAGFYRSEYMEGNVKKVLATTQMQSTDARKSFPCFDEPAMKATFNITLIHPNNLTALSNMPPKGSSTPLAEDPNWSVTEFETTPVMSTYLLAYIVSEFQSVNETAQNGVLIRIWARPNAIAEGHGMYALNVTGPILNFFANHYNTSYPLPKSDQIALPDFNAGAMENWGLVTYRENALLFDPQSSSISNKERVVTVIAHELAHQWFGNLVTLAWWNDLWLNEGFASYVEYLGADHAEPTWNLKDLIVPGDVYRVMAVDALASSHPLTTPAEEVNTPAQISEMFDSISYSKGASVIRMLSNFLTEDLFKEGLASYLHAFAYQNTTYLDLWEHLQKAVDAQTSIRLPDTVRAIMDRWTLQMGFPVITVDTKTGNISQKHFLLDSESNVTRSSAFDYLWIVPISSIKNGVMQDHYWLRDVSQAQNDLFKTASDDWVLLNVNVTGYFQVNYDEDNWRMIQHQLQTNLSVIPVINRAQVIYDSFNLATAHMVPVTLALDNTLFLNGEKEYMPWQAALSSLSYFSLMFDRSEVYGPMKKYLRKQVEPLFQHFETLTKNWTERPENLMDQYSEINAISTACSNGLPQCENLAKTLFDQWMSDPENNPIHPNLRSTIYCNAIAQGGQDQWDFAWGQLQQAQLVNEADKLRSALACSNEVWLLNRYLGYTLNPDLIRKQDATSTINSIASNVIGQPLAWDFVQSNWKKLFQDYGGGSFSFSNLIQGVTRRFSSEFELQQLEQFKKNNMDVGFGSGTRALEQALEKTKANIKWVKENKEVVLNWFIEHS
pKi: −log10 of the molar value.
measured.attribute: pKi

In [3]: df
Out[3]:
                                   molecule  observed
0  CCCCC(N)P(=O)(O)C(=S)NCc1ccc(OC)cc1 (stereo unspecified)      6.84

###

Molecular target: Aminopeptidase N (Sus scrofa)
Sequence (P15145 whole entry): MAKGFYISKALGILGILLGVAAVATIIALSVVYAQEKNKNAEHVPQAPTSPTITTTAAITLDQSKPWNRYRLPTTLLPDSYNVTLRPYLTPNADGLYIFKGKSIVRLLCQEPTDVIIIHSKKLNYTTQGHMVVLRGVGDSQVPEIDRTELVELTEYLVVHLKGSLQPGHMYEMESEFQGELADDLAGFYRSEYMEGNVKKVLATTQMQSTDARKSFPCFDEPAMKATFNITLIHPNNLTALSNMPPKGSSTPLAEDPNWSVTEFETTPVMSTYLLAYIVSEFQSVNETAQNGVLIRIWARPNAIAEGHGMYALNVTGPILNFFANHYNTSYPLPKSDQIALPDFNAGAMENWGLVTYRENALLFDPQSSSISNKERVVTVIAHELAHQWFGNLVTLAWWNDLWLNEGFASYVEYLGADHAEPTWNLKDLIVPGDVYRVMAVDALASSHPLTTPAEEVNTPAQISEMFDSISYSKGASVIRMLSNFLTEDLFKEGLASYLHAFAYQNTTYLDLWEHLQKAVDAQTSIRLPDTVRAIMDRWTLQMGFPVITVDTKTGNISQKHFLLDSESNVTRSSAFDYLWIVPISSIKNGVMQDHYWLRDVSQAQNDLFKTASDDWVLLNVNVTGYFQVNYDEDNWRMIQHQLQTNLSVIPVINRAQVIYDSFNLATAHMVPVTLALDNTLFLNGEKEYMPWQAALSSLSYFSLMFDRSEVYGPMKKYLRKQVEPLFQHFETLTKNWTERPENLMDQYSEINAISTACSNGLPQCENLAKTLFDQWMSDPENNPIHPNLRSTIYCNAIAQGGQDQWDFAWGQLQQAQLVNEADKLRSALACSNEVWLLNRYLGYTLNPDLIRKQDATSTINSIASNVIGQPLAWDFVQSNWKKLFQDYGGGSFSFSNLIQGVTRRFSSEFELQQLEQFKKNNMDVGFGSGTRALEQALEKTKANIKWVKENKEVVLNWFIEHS
measured.attribute: IC50 (nM)

>>> df
                                   compound                         target  observed
0  CCCCCCNC(=S)P(=O)(O)C(N)CC(C)C (stereo unspecified)  Aminopeptidase N (Sus scrofa)       500
1  CCCC(N)P(=O)(O)C(=S)NCCc1ccccc1 (stereo unspecified)  Aminopeptidase N (Sus scrofa)      2280
2  CCCCC(N)P(=O)(O)C(=S)NCc1ccc(OC)cc1 (stereo unspecified)  Aminopeptidase N (Sus scrofa)       250
3  CCCC(N)P(=O)(O)C(=S)NCc1ccc(OC)cc1 (stereo unspecified)  Aminopeptidase N (Sus scrofa)       680
4  CC(N)P(=O)(O)C(=S)NCCc1ccccc1 (stereo unspecified)  Aminopeptidase N (Sus scrofa)      4200
5  CNC(=S)P(=O)(O)C(N)CC(C)C (stereo unspecified)  Aminopeptidase N (Sus scrofa)     10600
